Hey, just so you know, these numbers are from the domain aggregation screens of Martell et al. (2025).

Assay: soluble fraction after stress (log2 fold change); higher = more stays soluble; pooled small domains, quantitative proteomics;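 note: 20 min heating vs room temperature control held 20 min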
Settings: stress: 75 degC
ENDPOINT NAME: soluble fraction (log2)
Answer with a number only.

-- ask Recorded soluble fraction (log2) for HMIDEQDLKKYILISTSVEELTDYLGATDRMLYDYLYSLKHVGQYWQLNERFLLDLYKLPNLVIVDKEDLE , please?
-- reply -0.172

-- ask Likewise for HMAKVDIPHEMVDQRIDEIVEEIKMNLESQNMSLDDYLKRMNQTEAQLRANYEATAAEQVRQGLV ?
-- reply 0.858

-- ask Same thing, different sequence: HMGLDQNTLDRVDDINDTLATGIEIGPETRGTIEELNETLANGLKAGFDEETLARVDELLRVVEDGLK
-- reply 0.0586

-- ask What about HMIKLIKKDTNISELKMSKMPWDVMLYGKPYQVVSIKGYVHTIGGRRGENDLWMYPRDESPTYENLIEFQ ?
-- reply -2.19

-- ask And the next one, HMLPSMENWLGELSFWQTPWWERRDFSTFDNIAQSKEELDEFMSRDDNGAILERMQDPINTIEAE ?
-- reply -0.285

-- ask What about HMQRADYLILYYIKMQAEQHPDSKVYLADLAAVMGLKVTELSKAVEKLQDNGFVAWKTDREAGRTYVELS ?
-- reply -3.13

-- ask Entry to check: HMSSPTAKATGSSVNIRKSASTGAAVLKRVEKGTVLEAVSISDGWVKVKYSGVTGYVSADYVKVSGL
-- reply -2.19

-- ask // repeat for HMEFENIEQRKQYWSDLYRELKAGQDAYAKELKKGTEGYTQDELDILKEFTDEAKKQMEAAGVEATDEFAS and report
-- reply -0.0427

-- ask # repeat for HMDEAEELYQAVQALKPKYREVILLHYYQGLRVGEIAAILRAPQSTVSIRLRRARQMLNRMLG
-- reply -0.701

-- ask Thanks! And HMNRTKQIYNELLFRLDQGVYPPESKFPSESQLADEFSVSKVTMNKIVSMLASSGRLSRGVRGAGTFVSSP ?
-- reply -1.33

-- ask Then HMIVVMQPGATKEQVQAVIDRVAEFGFQTKLAPGAERMVIGVVGSPLPDTLKEALERLPGVEEVIRVSKR ?
-- reply -0.379

-- ask Repeat for the following sequence: HMDKATMRWEQIEKFLETHPYIMNADVRALFNVSAATANRILATLTTEGKLVKYREGGHWAYKY
-- reply -1.1

-- ask What about this sequence? HMAEPLYKQVKNKIIQNLTSDEWKPGSVIPSETKLAETYGVGVSTIRMAIGELVAARILIRRQGKGTFVSS
-- reply -2.1

-- ask Further, for HMFTNSTSSRQLTNSDDTLRLNISSQTRQMLPNGQPFGGSLSGKLLLVIYGATTRSIPAQTTPEKIVV ?
-- reply -0.198

-- ask And then HMDKRYYYRILGLVGEPTRDQIEAAYETRIAKLRSSDYGDDPLYARRKISEVTMAYKVLTGS , what is it?
-- reply -1.56

-- ask Lookup HMEQIFTELIMDGRVLGENLHRMGVDETWLLRQLRQQGYHSAREVFLAVADANKQVAVYPVS
-- reply -0.381

-- ask Thanks! And HMSDLVATKEQVVEAYKYGLGLGLDNSTLKMLLFDIRGEDVADQDKISDGMTVSEIEIWKEGMRTIAEEYL ?
-- reply -0.5

-- ask Subsequent entry: HMVAGHLQTKKGYYYIVLNMRTDTGARKTKWIATGIPEGGKKNLKQAEELLAKTRYTYEDMVI
-- reply -2.52

-- ask Next record, please: HMIDTPQELARLLRLLDEQNFEAEILFHKLRPDLLHLWSKEHVTRIAEALDAFDYQMALTLLNASP
-- reply -2.43

-- ask Next sequence: HMATLAVPNLMRLSQGEAMALIRLSGLSIGNVSIDSSMGSPRVIRQEPQASGGMLVLTQGDQVHLWLEGP
-- reply -3.75

-- ask # repeat for HMGKNYYEILGITKSASEEQVRKAFRGLAMEWHPDRNRSADSEERFKEINEAYQVLIDPKKRQMYDQYGR
-- reply 0.394

-- ask Also HMNMDLGHSISKLRTDANLTQEKFAQILNVSRQTVQKWEYGEALPDIHNIIKIAKFFNISLDALVLRS ?
-- reply -3.02

-- ask // same read-out, input: HMEQFDFTILRELRKRAGLSIGEVSAESGVSAAVISKLERNRTRAELDTLYRLARVFGITAAELLNLAEA
-- reply -2.19

-- ask Further, for HMSELLIVGSEQDNTRLDRFLADQYEEYTRSFLQKLIDQGNVSINGISVKKSGIKLKENDEIAVTLPEPQ ?
-- reply 0.646

-- ask Same question for HMEGTAAAVALKGLMEQSGVDLREVMAAVESRGYYPKGTPFENYDPAFVSGVLVGAWDQVYKMILDQRPIP please.
-- reply -0.692

-- ask Input HMIGRRLKVARASAGLSLRELAARMDGVVTPQAIGKYERNEDMPGSRALMALASALGVSEGYLLSD
-- reply -1.38

-- ask Okay, and HMRQSDIAAAFRESILRSSKGFQYLHTRDFVTALRRRGIHLSEVEANSWIAREKTYFVDSALDHSENRLWI ?
-- reply -1.65

-- ask Next sequence up: HMLSNKIEQLRKEKGYTFAKLSELSGISTGRLSDLATGKRNNPTMDTLIKLADALDVTLDELVGR
-- reply -0.26

-- ask Input HMKTRIQDLRKELGVTQSELADAVDVTRQTIISLEGGRYKASLVLAHKLAQFFHVTIEELFIFD
-- reply -2.32

-- ask Param item: HMQDQVTLIVQVNGKLRGQISISTDATKELIEQTALANENVQKFVDGQSIKKIIIVPGRLVNIV
-- reply -0.939

-- ask Param item: HMPERLTYVHPDGAEPMRADKALAAFLSGRISRSRLLGSFSAGKVMAGGKPVEKKLLLRAGDALEVELPEP
-- reply -0.239

-- ask Item: HMGKDIYLTSGWVEKFDELNEFSNSVDNYDRLNQFGMYENAIIGDTGVIKITDEMIFDLYEKIQVPVEAGP
-- reply -0.0582

-- ask Subsequent entry: HMIDIIEYIISEESKGLRADQGIALQNPQYSRSLIQKWIKKGSVLVNNKIIRTKEILLEGDKISITPEENI
-- reply -0.546
